# System: EKVX
# procedure_summary: NCI tumour cell line growth inhibition, 48 h
The source made the active and inactive calls. Cut-off read from the data, not from the text of the source: active = GI50 up to about 1.1 µM and inactive = higher.
Classes to choose from: active, inactive

// known answers, use as guide
Hi team, can someone confirm the assay call for O=C(CCN(C(=O)O)S(=O)(=O)c1ccc(NC(=O)c2ccccc2)cc1)Nc1ccccc1 ?
inactive

Hi team, can someone confirm the assay call for Cc1ccc(C)c(N2C/C(=N\NC(=O)CC#N)C(c3nc4ccccc4s3)C(=O)C2=O)c1 (configuration not stated) ?
inactive

Hi team, can someone confirm the assay call for COc1ccc2c3c1OC1C34CCN(C)C(C2)C4=CC(I)C1(OC)OC (configuration not stated) ?
inactive

Continuing:
Hi team, can someone confirm the assay call for CC1(C)OC(C(=O)Nc2cc3c4ccccc4ccc3c3ccccc23)C(C(=O)N2CCCCC2)O1 (configuration not stated) ?
inactive

Hi team, can someone confirm the assay call for Cc1cc2c(cc1C)[n+]([O-])c(C(F)(F)F)c(C(=O)c1ccccc1)[n+]2[O-] ?
active

Hi team, can someone confirm the assay call for C/C=C/CC(S(=O)(=O)c1ccccc1)S(=O)(=O)c1ccccc1 ?
inactive

Hi team, can someone confirm the assay call for O=c1[nH]c2ccc(O)cc2o1 ?
inactive

====

# Tested on: DMS-114
# procedure_summary: NCI tumour cell line growth inhibition, 48 h
Activity calls are given as the source filed them. No stated cut-off is given here; in the data, active = GI50 up to about 1.1 µM and inactive = higher. Where a SMILES comes first, the peptide text is derived from it. The star is where a group is joined. Boc = CC(C)(C)OC(=O)*
property_label: GI50

Example entries and their recorded answers appear below.
What GI50 value was documented for this compound, COc1nc(NC2OC(COC(C)=O)C(OC(C)=O)C(OC(C)=O)C2OC(C)=O)c2c(OC(C)=O)cc(=O)oc2n1 (configuration not stated) ?
> 100 µM (inactive)

What GI50 value was documented for this compound, CCN(CC)CSc1nc2ccccc2o1 ?
> 100 µM (inactive)

Continuing:
What GI50 value was documented for this compound, C[Si](C)(C)[C@@]1([Se]c2ccccc2)CC[C@@H]1C(=O)c1ccccc1 ?
38.5 µM (inactive)

What GI50 value was documented for this compound, O=C1c2ccccc2C(=O)N1CCn1ccc(NC(c2ccccc2)(c2ccccc2)c2ccccc2)nc1=O ?
18.4 µM (inactive)

What GI50 value was documented for this compound, CSCCC(NC(=O)C(CC(C)C)NC(=O)C1CCCN1C(=O)C(Cc1ccccc1)NC(=O)C(Cc1ccccc1)NC(=O)C(CCC(=O)O)NC(=O)OC(C)(C)C)C(N)=O (configuration not stated) (Boc-EFFPLM-NH2; configuration not given here) ?
> 100 µM (inactive)

What GI50 value was documented for this compound, C/C=C/CC(S(=O)(=O)c1ccccc1)S(=O)(=O)c1ccccc1 ?
14 µM (inactive)

What GI50 value was documented for this compound, CCCCCCN(CCCCCC)C(=O)Cc1c2n(c3ccccc13)Cc1ccccc1-2 ?
28.6 µM (inactive)

What GI50 value was documented for this compound, c1ccc2c(c1)SC(=C1Sc3ccccc3S1)S2 ?
69.8 µM (inactive)

What GI50 value was documented for this compound, CN(C)/C=N/c1nc2c(ncn2C2OC(CO)C(O)C2O)c(=O)[nH]1 (configuration not stated) ?
> 100 µM (inactive)

What GI50 value was documented for this compound, COc1cccc(-n2c3nc(=O)n(C)c(=O)c-3nc3ccccc32)c1 ?
5.11 µM (inactive)

What GI50 value was documented for this compound, COC(=O)C1C2CC3C(OC(=O)C31)C2OC(=O)[C@](OC)(c1ccccc1)C(F)(F)F (some centres not stated) ?
> 100 µM (inactive)

What GI50 value was documented for this compound, COc1ccc(S(=O)(=O)N[C@H](C(=O)O)c2ccccc2)cc1 ?
> 100 µM (inactive)

====

# System: SF-268
# procedure_summary: NCI tumour cell line growth inhibition, 48 h
Calls of active or inactive are those of the source. No stated cut-off is given here; in the data, active = GI50 up to about 1.1 µM and inactive = higher.
Recorded measurements of GI50, one per entry

What GI50 value was documented for this compound, COc1ccc(C23c4ccc(OC)cc4CC2(c2ccc([N+](=O)[O-])cc2)Cc2cc(OC)ccc23)cc1 (configuration not stated) ?
> 22.3 µM (inactive)

Continuing:
What GI50 value was documented for this compound, Cc1ccc(S(=O)(=O)N/N=C/C2(c3ccccc3)c3ccccc3-c3ccccc32)cc1 ?
14 µM (inactive)

What GI50 value was documented for this compound, CCCN(CCC)C(=O)C(=O)c1c(N)[nH]n(-c2ccccc2)c1=O ?
> 100 µM (inactive)

What GI50 value was documented for this compound, CCN(CC)CC(=O)N1CCc2c([nH]c3ccccc23)C1c1cccnc1 (configuration not stated) ?
> 100 µM (inactive)

What GI50 value was documented for this compound, C=C1C(=O)C2(C)OC2(C)C1C(=O)O (configuration not stated) ?
> 100 µM (inactive)

What GI50 value was documented for this compound, COC(=O)C(=O)CC(=O)CCn1[nH]c(=O)c(Cl)c(Cl)c1=O ?
> 100 µM (inactive)

What GI50 value was documented for this compound, O=C1C2C3C4C1C1C2[C@H](OCc2ccccc2)C3C1[C@H]4OCc1ccccc1 (some centres not stated) ?
60.5 µM (inactive)

What GI50 value was documented for this compound, CCOC(=O)/C=C/[C@@H](CC)O[Si](C(C)C)(C(C)C)C(C)C ?
> 100 µM (inactive)

====

# Test system: NCI-H23
# procedure_summary: NCI tumour cell line growth inhibition, 48 h
Activity calls are given as the source filed them. Cut-off read from the data, not from the text of the source: active = GI50 up to about 1.1 µM and inactive = higher.
property_label: GI50

Example entries and their recorded answers appear below.
What GI50 value was documented for this compound, COc1cc(C)c2c(c1)CN1CN2Cc2cc(OC)cc(C)c21 ?
45.8 µM (inactive)

What GI50 value was documented for this compound, ON1CCc2c([nH]c3ccccc23)C1c1ccc(Cl)cc1 (centres undefined) ?
21.9 µM (inactive)

What GI50 value was documented for this compound, C=C[C@@H](OCOCC[Si](C)(C)C)[C@@H](CC)OC(CCCOC(=O)C(C)(C)C)OC (some centres undefined) ?
28.3 µM (inactive)

Could you now consider this next compound?
What GI50 value was documented for this compound, N#Cc1nc2ccccc2nc1N1CCN(c2ccc([N+](=O)[O-])cc2)CC1 ?
> 100 µM (inactive)

====

# Tested on: HT-29
# procedure_summary: NCI tumour cell line growth inhibition, 48 h
Calls of active or inactive are those of the source. No stated cut-off is given here; in the data, active = GI50 up to about 1.1 µM and inactive = higher.
Recorded measurements of GI50, one per entry

Please provide the recorded GI50 for COc1ccc(S(=O)(=O)N[C@H](C(=O)O)c2ccccc2)cc1 , tested on HT-29.
> 100 µM (inactive)

Continuing:
Please provide the recorded GI50 for Nc1cc(O)c2c(c1O)C(=O)C=CC2=O , tested on HT-29.
4.55 µM (inactive)

Please provide the recorded GI50 for N=S(c1ccccc1)c1ccccc1[N+](=O)[O-] (configuration not stated) , tested on HT-29.
21.5 µM (inactive)

Please provide the recorded GI50 for C(CCc1nnc2c(n1)CCCC2)Cc1nnc2c(n1)CCCC2 , tested on HT-29.
> 100 µM (inactive)

Please provide the recorded GI50 for CC(=O)C(=C(c1ccccc1)c1ccccc1)c1ccccc1 , tested on HT-29.
> 100 µM (inactive)

Please provide the recorded GI50 for NNc1nncn1N , tested on HT-29.
> 100 µM (inactive)

Please provide the recorded GI50 for CCNCCCCNCCCCNCCCCNCCCCNCC , tested on HT-29.
18.6 µM (inactive)

====

# Tested on: CCRF-CEM
# procedure_summary: NCI tumour cell line growth inhibition, 48 h
Activity calls are given as the source filed them. Rule as the data show it: active = GI50 up to about 1.1 µM and inactive = higher.
property_label: GI50

Please provide the recorded GI50 for Oc1cccc(-c2cn3cc(Cl)ccc3n2)c1 , tested on CCRF-CEM.
7.03 µM (inactive)

Please provide the recorded GI50 for CCOC(=O)/C(C(=O)Nc1cccc(C(F)(F)F)c1)=C(/N)N1CCOCC1 , tested on CCRF-CEM.
> 100 µM (inactive)

Please provide the recorded GI50 for O=C1CCc2cc3c(cc21)CC1(Cc2cc4c(cc2C1)CCCC4)C3 , tested on CCRF-CEM.
72.3 µM (inactive)

Could you now consider this next compound?
Please provide the recorded GI50 for COC(=O)C(Cc1c[nH]c2ccccc12)NC(=O)C(Cc1c[nH]cn1)NC(=O)C1CCC(=O)N1C(=O)OCc1ccccc1 (centres undefined) , tested on CCRF-CEM.
> 100 µM (inactive)

====

# System: OVCAR-8
# procedure_summary: NCI tumour cell line growth inhibition, 48 h
Calls of active or inactive are those of the source. Cut-off read from the data, not from the text of the source: active = GI50 up to about 1.1 µM and inactive = higher.
Recorded measurements of GI50, one per entry

What GI50 value was documented for this compound, CCN(CC)c1ccc(/C=C(\C#N)c2nc(N)nc(N3N=C(C)CC3(C)C)n2)cc1 ?
10.6 µM (inactive)

What GI50 value was documented for this compound, COC(=O)[C@@H]1C[C@H]([Se]c2ccccc2)CN1S(=O)(=O)c1ccc(C)cc1 ?
> 100 µM (inactive)

What GI50 value was documented for this compound, COc1ccc(NC(=O)C/C(C)=N\N=C(N)N)c([N+](=O)[O-])c1 ?
> 100 µM (inactive)

What GI50 value was documented for this compound, CC1OC(OC2C[C@](O)(C(=O)CBr)Cc3c(O)c4c(c(O)c32)C(=O)c2ccccc2C4=O)C(F)C(O)C1O (some centres undefined) ?
16.1 µM (inactive)

What GI50 value was documented for this compound, N#CC12CC(C=O)=C(N)C1(C#N)CC(C=O)=C2N (centres undefined) ?
63.7 µM (inactive)
